Test system: P388 leukemia ip, CD2F1 mice, survival T/C
Protocol Description: NCI In Vivo Anticancer Drug Screen. Data for tumor model P388 Leukemia (intraperitoneal) in CD2F1 (CDF1) mice
Applied Conditions: endpoint: median survival time; dose: 120.0 mg/kg/injection; schedule: Q01DX005 (ip); vehicle: saline with Tween-80; higher = longer survival
Inconclusive results and toxic doses are left out.
Measured Parameter: T/C

INSERT INTO assay_data (molecule, result) VALUES
  ('S=C(/N=N/c1[nH]c2ccccc2c1NNC(=S)NC12CC3CC(CC(C3)C1)C2)NC12CC3CC(CC(C3)C1)C2', '87 % of control'),
  ('CC(C)(C)C(=O)CC(=O)C(F)(F)C(F)(F)C(F)(F)F.CC(C)(C)C(=O)CC(=O)C(F)(F)C(F)(F)C(F)(F)F.CC(C)(C)C(=O)CC(=O)C(F)(F)C(F)(F)C(F)(F)F.[Pr]', '116 % of control'),
  ('Cc1c(Cl)cccc1NC(=O)/C(Cl)=C1/Sc2ccccc2NC1=O', '93 % of control'),
  ('N#Cc1c(Cl)c(Cc2ccccc2)c(Cl)n2c1nc1ccccc12', '108 % of control'),
  ('CC(C)(C)/[N+]([O-])=C/C(c1ccccc1)C(/C=[N+](/[O-])C(C)(C)C)c1ccccc1 (centres undefined)', '98 % of control'),
  ('CC1=C(Sc2ccc(Br)cc2)C(N)Nc2nc(N)nc(N)c21 (centres undefined)', '89 % of control'),
  ('CCOc1ccncc1[N+](=O)[O-]', '93 % of control'),
  ('CC(Cl)(C=O)c1ccccc1 (centres undefined)', '97 % of control'),
  ('Cc1ccc(NC(=O)CCCC(=O)C(C#N)c2nc3ccccc3s2)cc1C (centres undefined)', '98 % of control');
